test: log P determination by HPLC (EEC Directive 79/831 Annex V.A8, gradient method); format: physicochemical
Task for the reader: assign each of the following compounds its reported Physical data: logP.

# return recorded Physical data: logP for entry `CCN(CC)C(=O)/C=C/c1c(-c2ccc(OC)c(OC)c2)nc2sc(C(F)(F)F)nn12` 3.53

# return recorded Physical data: logP for entry `CC(C)NC(=O)/C=C/c1c(-c2ccc(Cl)nc2)nc2sc(C(F)(F)F)nn12` 2.85

# return recorded Physical data: logP for entry `C[Si](C)(C)CNC(=O)/C=C/c1c(-c2ccc(F)cc2Cl)nc2sc(C(F)(F)F)nn12` 4.10

# return recorded Physical data: logP for entry `O=C(/C=C/c1c(-c2ccc(F)cc2Cl)nc2sc(C(F)(F)F)nn12)NC1(C(F)(F)F)CC1` 3.71

# return recorded Physical data: logP for entry `Cc1cn2c(/C=C/C(=O)NCC(F)(F)F)c(-c3ccccc3Cl)nc2s1` 2.64

# return recorded Physical data: logP for entry CCC(C)NC(=O)/C=C/c1c(-c2ccccc2Cl)nc2scc(C)n12 (centres unmarked) 2.35

# return recorded Physical data: logP for entry `Cc1cn2c(/C=C/C(=O)NC3CCCC3)c(-c3ccccc3Cl)nc2s1` 2.7

# return recorded Physical data: logP for entry `COc1ccc(-c2nc3sc(C(F)(F)F)nn3c2/C=C/C(=O)NC2CCCC2)cc1OC` 3.26
